Conditions: in methanol, 298.15 K
Measured property: solubility (mole fraction)

# Smiles record, Measured property, Result
records = [
    ("On1nnc2ccccc21", "solubility (mole fraction)", 0.0386),
]

----------
Conditions: in isopropanol, 300.65 K

# Smiles record, solubility (mole fraction)
records = [
    ("On1nnc2ccccc21", 0.0451),
]

----------
Conditions: in acetonitrile, 305.65 K

# Smiles record, solubility (mole fraction)
data = [
    ("On1nnc2ccccc21", 0.0058),
]

----------
Settings: in toluene, 310.65 K
Measured property: solubility (mole fraction)

# Smiles record, Measured number
records = [
    ("On1nnc2ccccc21", "6.2e-05"),
]

----------
Conditions: in n-heptanol, 283.15 K

# Smiles record, solubility (mole fraction)
measured = [
    ("On1nnc2ccccc21", 0.0129),
]

----------
Conditions: in isopentanol, 298.15 K
Measured property: solubility (mole fraction)

# Smiles record, Measured number
rows = [
    ("On1nnc2ccccc21", 0.0148),
]

----------
Conditions: in acetone, 278.15 K

# Smiles record, solubility (mole fraction)
data = [
    ("On1nnc2ccccc21", 0.0139),
]

----------
Conditions: in acetonitrile, 293.15 K
Measured property: solubility (mole fraction)

# Smiles record, Measured number
measured = [
    ("On1nnc2ccccc21", 0.0038),
]

----------
Settings: in isopropanol, 305.65 K
Measured property: solubility (mole fraction)

# Smiles record, Measured number
records = [
    ("On1nnc2ccccc21", 0.0515),
]

----------
Settings: in 2-butanone, 285.65 K

# Smiles record, solubility (mole fraction)
data = [
    ("On1nnc2ccccc21", 0.0195),
]
